- targetOrTestSystem: recombinant human baculovirus-expressed GST-tagged FASN (Homo sapiens)
- Construct: GST
- runDescription: biochemical
pIC50: −log10 of the molar value. Where a name gives a salt, the structure may show the parent alone.

# molecule, pIC50
data = [
    ("Cc1c(-c2ccc3c(c2)COC2(CCN(C(=O)CO)CC2)O3)ccc2cccnc12", "6.00 to 7.00"),
    ("O=C(C1CC1)N1CCC2(CC1)OCc1cc(-c3ccc4cccnc4c3)ccc1O2", "7.00 to 9.00"),
    ("Cc1c(-c2ccc3c(c2)COC2(CCN(C(N)=O)CC2)O3)cnc2ccccc12", "6.00 to 7.00"),
    ("O=C([C@H]1CCCO1)N1CCC2(CC1)OCc1cc(-c3ccncc3)ccc1O2 [Example 231, HCl]", "6.00 to 7.00"),
    ("CONC(=O)N1CCC2(CC1)OCc1cc(-c3ccc4cnc(C)cc4c3)ccc1O2", "7.00 to 9.00"),
    ("CCONC(=O)N1CCC2(CC1)OCCc1cc(-c3ccc4cccnc4c3C)ccc1O2", "7.00 to 9.00"),
    ("Cc1c(-c2ccc3c(c2)CCOC2(CCN(C(N)=O)CC2)O3)ccc2cccnc12", "6.00 to 7.00"),
    ("NC(=O)N1CCC2(CC1)OCc1cc(-c3cnc4sccc4c3)ccc1O2", "5.00 to 6.00"),
]

* * *

- targetOrTestSystem: recombinant human baculovirus-expressed GST-tagged FASN (Homo sapiens)
- Construct: GST
- runDescription: biochemical
- recordedConditions: 5 nM FASN, 150 μM NADPH, 10 μM acetyl-CoA, 25 μM malonyl-CoA, 90 minutes incubation; read-out: IC50 data for Compounds of Formula I, Activity
Counter-ions that a name gives are not always drawn.
Each entry below carries its recorded IC50.
quantityName: IC50

# molecule, assayResult
records = [
    ("CCCONC(=O)N1CCC2(CCc3cc(-c4ccc5c(C)nccc5c4)ccc3O2)CC1 [Example 186]", "1 to 99 nM"),
    ("O=C(C1CC1)N1CCC2(CCc3cc(-c4cccnc4)ccc3O2)CC1 [Example 222, HCl]", "1000 to 10000 nM"),
    ("Cc1cc2c(cc1-c1ccc3cccnc3c1C)CCC1(CCN(C(N)=O)CC1)O2 [Example 244]", "1000 to 10000 nM"),
    ("Cc1c(-c2ccc3c(c2)CCC2(CCN(C(=O)NC(C)C)CC2)O3)ccc2cccnc12 [Example 98]", "100 to 999 nM"),
]

* * *

Each entry below carries its recorded IC50.
- targetOrTestSystem: recombinant human baculovirus-expressed GST-tagged FASN (Homo sapiens, UniProt P49327)
- Construct: GST
- Sequence (P49327 whole entry): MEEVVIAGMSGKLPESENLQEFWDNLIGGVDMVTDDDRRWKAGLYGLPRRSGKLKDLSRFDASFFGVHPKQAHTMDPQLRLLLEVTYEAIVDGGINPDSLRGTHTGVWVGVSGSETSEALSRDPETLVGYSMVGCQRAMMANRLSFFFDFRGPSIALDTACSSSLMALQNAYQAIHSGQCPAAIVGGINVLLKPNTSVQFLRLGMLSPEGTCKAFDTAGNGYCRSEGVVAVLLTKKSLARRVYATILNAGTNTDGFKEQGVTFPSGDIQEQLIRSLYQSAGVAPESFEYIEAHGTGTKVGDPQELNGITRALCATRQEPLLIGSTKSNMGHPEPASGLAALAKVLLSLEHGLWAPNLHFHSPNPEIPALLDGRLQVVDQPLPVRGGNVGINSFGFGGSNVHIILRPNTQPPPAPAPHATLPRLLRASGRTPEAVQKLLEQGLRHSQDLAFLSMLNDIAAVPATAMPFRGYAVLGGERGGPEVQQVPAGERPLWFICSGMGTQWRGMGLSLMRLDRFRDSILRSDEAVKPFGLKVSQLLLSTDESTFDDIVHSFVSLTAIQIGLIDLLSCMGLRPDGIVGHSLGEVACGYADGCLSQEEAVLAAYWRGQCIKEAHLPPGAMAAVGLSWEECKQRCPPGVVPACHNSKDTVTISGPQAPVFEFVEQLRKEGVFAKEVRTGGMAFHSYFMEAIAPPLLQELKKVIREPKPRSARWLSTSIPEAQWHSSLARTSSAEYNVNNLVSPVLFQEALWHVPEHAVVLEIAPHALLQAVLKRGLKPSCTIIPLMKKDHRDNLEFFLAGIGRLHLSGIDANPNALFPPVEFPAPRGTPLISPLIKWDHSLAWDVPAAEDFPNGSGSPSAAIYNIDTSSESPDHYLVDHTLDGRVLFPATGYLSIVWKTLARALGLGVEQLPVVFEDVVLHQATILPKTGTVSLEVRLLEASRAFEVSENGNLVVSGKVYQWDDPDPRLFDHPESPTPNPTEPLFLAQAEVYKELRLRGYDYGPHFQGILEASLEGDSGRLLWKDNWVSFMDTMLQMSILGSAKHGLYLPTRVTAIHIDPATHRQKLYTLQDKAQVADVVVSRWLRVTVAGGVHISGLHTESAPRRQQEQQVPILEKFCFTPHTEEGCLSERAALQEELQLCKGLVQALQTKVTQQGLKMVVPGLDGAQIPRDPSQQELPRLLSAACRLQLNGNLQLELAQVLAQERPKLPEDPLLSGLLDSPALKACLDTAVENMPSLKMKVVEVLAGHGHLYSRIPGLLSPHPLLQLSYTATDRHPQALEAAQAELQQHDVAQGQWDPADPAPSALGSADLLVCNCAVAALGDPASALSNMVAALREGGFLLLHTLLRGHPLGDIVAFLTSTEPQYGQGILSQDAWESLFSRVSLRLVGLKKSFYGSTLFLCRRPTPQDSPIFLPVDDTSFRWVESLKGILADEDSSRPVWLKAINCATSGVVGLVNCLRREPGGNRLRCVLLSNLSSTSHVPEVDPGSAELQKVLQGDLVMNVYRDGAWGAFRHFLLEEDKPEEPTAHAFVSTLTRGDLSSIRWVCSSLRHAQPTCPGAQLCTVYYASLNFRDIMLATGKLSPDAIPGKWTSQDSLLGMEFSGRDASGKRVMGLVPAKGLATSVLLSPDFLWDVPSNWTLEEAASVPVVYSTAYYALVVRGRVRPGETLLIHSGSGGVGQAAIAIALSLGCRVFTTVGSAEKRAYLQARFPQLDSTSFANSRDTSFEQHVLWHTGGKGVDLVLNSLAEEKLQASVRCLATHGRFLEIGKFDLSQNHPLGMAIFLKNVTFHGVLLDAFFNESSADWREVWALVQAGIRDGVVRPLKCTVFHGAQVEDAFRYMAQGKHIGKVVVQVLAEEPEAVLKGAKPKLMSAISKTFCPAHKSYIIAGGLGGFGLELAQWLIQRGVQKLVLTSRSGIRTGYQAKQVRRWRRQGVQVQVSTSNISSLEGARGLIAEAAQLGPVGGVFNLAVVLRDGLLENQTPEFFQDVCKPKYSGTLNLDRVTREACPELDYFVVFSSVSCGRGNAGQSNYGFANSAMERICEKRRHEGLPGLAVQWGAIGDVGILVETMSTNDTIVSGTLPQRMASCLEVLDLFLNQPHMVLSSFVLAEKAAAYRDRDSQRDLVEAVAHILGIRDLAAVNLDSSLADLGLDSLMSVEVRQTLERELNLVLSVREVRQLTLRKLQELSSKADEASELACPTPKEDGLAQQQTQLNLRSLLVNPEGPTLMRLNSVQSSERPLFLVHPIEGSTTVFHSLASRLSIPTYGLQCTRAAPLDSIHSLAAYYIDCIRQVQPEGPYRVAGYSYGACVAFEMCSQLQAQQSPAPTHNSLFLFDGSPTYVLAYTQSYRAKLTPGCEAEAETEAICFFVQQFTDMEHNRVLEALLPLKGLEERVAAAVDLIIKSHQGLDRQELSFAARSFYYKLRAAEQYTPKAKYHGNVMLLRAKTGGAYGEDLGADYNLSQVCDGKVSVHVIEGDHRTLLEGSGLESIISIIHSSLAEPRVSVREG
- runDescription: biochemical
- recordedConditions: 5 nM FASN, 150 μM NADPH, 10 μM acetyl-CoA, 25 μM malonyl-CoA, 90 minutes incubation; read-out: IC50 data for Compounds of Formula I, Activity

# compound, targetOrTestSystem, IC50
measured = [
    ("Cc1c(-c2ccc3c(c2)CCC2(CCN(C(=O)NOC(C)C)CC2)O3)ccc2ccnn12", "recombinant human baculovirus-expressed GST-tagged FASN (Homo sapiens, UniProt P49327)", "1 to 99 nM"),
    ("Cc1c(-c2ccc3c(c2)CC2(CCN(C(N)=O)CC2)O3)ccc2ccnn12", "recombinant human baculovirus-expressed GST-tagged FASN (Homo sapiens, UniProt P49327)", "1000 to 10000 nM"),
    ("Cc1c(-c2ccc3c(c2)CCC2(CCN(C(=O)NCC4CC4)CC2)O3)ccc2cccnc12", "recombinant human baculovirus-expressed GST-tagged FASN (Homo sapiens, UniProt P49327)", "1 to 99 nM"),
    ("O=C(C1CC1)N1CCC2(CC1)CC(O)c1cc(-c3cnc4ccccc4c3)ccc1O2 (stereo not shown)", "recombinant human baculovirus-expressed GST-tagged FASN (Homo sapiens, UniProt P49327)", "100 to 999 nM"),
]

* * *

- targetOrTestSystem: recombinant human baculovirus-expressed GST-tagged FASN (Homo sapiens, UniProt P49327)
- Construct: GST
- runDescription: biochemical
Structures can show the parent of a compound that is named as a salt.
Each entry below carries its recorded IC50.
quantityName: IC50

# molecule, quantityName, assayResult
records = [
    ("O=C(C1CC1)N1CCC2(CC1)OCc1cc(-c3cnc4cccnc4c3)ccc1O2 [Example 37]", "IC50", "1000 to 10000 nM"),
    ("O=C(C1CCC1)N1CCC2(CC1)OCc1cc(-c3cnc4ccccc4c3)ccc1O2 [Example 41]", "IC50", "1 to 99 nM"),
    ("CONC(=O)N1CCC2(CC1)OCc1cc(-c3cnc4ccccc4c3C)ccc1O2 [Example 133]", "IC50", "1 to 99 nM"),
    ("CCC(=O)N1CCC2(CC1)OCc1cc(-c3ccc4cccnc4c3C)ccc1O2 [Example 53]", "IC50", "1 to 99 nM"),
    ("CCONC(=O)N1CCC2(CC1)OCc1cc(-c3cc4ccccc4cn3)ccc1O2 [Example 145]", "IC50", "1 to 99 nM"),
    ("CC(=O)OCC(=O)N1CCC2(CC1)OCc1cc(-c3ccc4cccnc4c3C)ccc1O2 [Example 60]", "IC50", "100 to 999 nM"),
    ("CCOC(=O)N1CCC2(CC1)OCc1cc(-c3ccc4cccnc4c3Cl)ccc1O2 [Example 137]", "IC50", "1000 to 10000 nM"),
    ("Cc1nccc2cc(-c3ccc4c(c3)COC3(CCN(C(=O)NOC(C)C)CC3)O4)ccc12 [Example 182]", "IC50", "1 to 99 nM"),
    ("O=C(C1CC1)N1CCC2(CC1)OCc1cc(-c3ccccn3)ccc1O2 [Example 219, HCl]", "IC50", "1000 to 10000 nM"),
    ("CCC(=O)N1CCC2(CC1)OCc1cc(-c3cccnc3)ccc1O2 [Example 224, HCl]", "IC50", "1000 to 10000 nM"),
    ("CCOC(=O)N1CCC2(CC1)OCc1cc(-c3ccc4cccnc4c3OC)ccc1O2 [Example 176]", "IC50", "100 to 999 nM"),
    ("CCNC(=O)N1CCC2(CC1)OCCc1cc(-c3ccc4cccnc4c3C)ccc1O2 [Example 78]", "IC50", "100 to 999 nM"),
    ("CCOC(=O)N1CCC2(CC1)OCc1cc(-c3ccc4cnc(Cl)cc4c3)ccc1O2 [Example 198]", "IC50", "1000 to 10000 nM"),
    ("CCONC(=O)N1CCC2(CC1)OCc1cc(-c3ccc4cccnc4c3Cl)ccc1O2 [Example 135]", "IC50", "1 to 99 nM"),
    ("CCOC(=O)N1CCC2(CC1)OCc1cc(-c3ccc4cccnc4c3)ccc1O2 [Example 30]", "IC50", "1 to 99 nM"),
    ("Cc1c(-c2ccc3c(c2)COC2(CCN(C(=O)NO)CC2)O3)cnc2ccccc12 [Example 140]", "IC50", "1000 to 10000 nM"),
    ("O=C(NO)N1CCC2(CC1)OCc1cc(-c3cc4ccccc4cn3)ccc1O2 [Example 150]", "IC50", "1000 to 10000 nM"),
]

* * *

- targetOrTestSystem: recombinant human baculovirus-expressed GST-tagged FASN (Homo sapiens, UniProt P49327)
- Construct: GST
- runDescription: biochemical
Structures can show the parent of a compound that is named as a salt.
Each entry below carries its recorded IC50.
quantityName: IC50

# compound, quantityName, assayResult
measured = [
    ("Cc1c(-c2ccc3c(c2)COC2(CCN(C(=O)C4CC4)CC2)O3)ccc2cccnc12", "IC50", "1 to 99 nM"),
    ("O=C([C@H]1CCCO1)N1CCC2(CC1)OCc1cc(-c3ccc4cccnc4c3Cl)ccc1O2", "IC50", "1 to 99 nM"),
    ("O=C(C1CC1)N1CCC2(CC1)OCc1cc(-c3ccncc3)ccc1O2 [Example 230, HCl]", "IC50", "1000 to 10000 nM"),
    ("CCNC(=O)N1CCC2(CC1)OCc1cc(-c3ccc4cnc(C)cc4c3)ccc1O2", "IC50", "1 to 99 nM"),
]

* * *

- targetOrTestSystem: recombinant human baculovirus-expressed GST-tagged FASN (Homo sapiens, UniProt P49327)
- Construct: GST
- runDescription: biochemical
- recordedConditions: 5 nM FASN, 150 μM NADPH, 10 μM acetyl-CoA, 25 μM malonyl-CoA, 90 minutes incubation; read-out: IC50 data for Compounds of Formula I, Activity
Structures can show the parent of a compound that is named as a salt.

# compound, IC50
measured = [
    ("Cc1c(-c2ccc3c(c2)CCC2(CCN(C(=O)NO)CC2)O3)ccc2ccnn12", "1000 to 10000 nM"),
    ("Cn1ccc2cc(-c3ccc4c(c3)CCC3(CCN(C(N)=O)CC3)O4)ccc21", "100 to 999 nM"),
    ("CCC(=O)N1CCC2(C=Cc3cc(-c4cnc5ccccc5c4)ccc3O2)CC1", "1 to 99 nM"),
    ("Cc1nccc2cc(-c3ccc4c(c3)CCC3(CCN(C(=O)C5CC5)CC3)O4)ccc12", "100 to 999 nM"),
    ("Cc1c(-c2ccc3c(c2)CCC2(CCN(C(N)=O)CC2)O3)ccc2ccnn12", "1 to 99 nM"),
    ("Cc1c(-c2ccc3c(c2F)CCC2(CCN(C(N)=O)CC2)O3)ccc2cccnc12", "100 to 999 nM"),
    ("CONC(=O)N1CCC2(CCc3cc(-c4ccc5cccnc5c4Cl)ccc3O2)CC1", "1 to 99 nM"),
    ("CCONC(=O)N1CCC2(CCc3cc(-c4ccc5c(C)nccc5c4)ccc3O2)CC1", "1 to 99 nM"),
    ("CONC(=O)N1CCC2(CCc3cc(-c4ccc5cccnc5c4C)cc(Cl)c3O2)CC1", "100 to 999 nM"),
    ("CCNC(=O)N1CCC2(CCc3cc(-c4ccc5c(C)nccc5c4)ccc3O2)CC1", "1 to 99 nM"),
    ("CCONC(=O)N1CCC2(CCc3cc(-c4cnc5ccccc5c4C)ccc3O2)CC1", "1 to 99 nM"),
    ("CONC(=O)N1CCC2(CCc3cc(-c4ccc5cccnc5c4C)ccc3O2)CC1", "1 to 99 nM"),
    ("CONC(=O)N1CCC2(CCc3cc(-c4ccc5c(C)nccc5c4)c(C)cc3O2)CC1", "100 to 999 nM"),
    ("CCC(=O)N1CCC2(CC1)CC(O)c1cc(-c3cnc4ccccc4c3)ccc1O2 (stereo not shown)", "100 to 999 nM"),
    ("CCONC(=O)N1CCC2(CCc3cc(-c4cc5ccccc5cn4)ccc3O2)CC1", "1 to 99 nM"),
    ("O=C(C1CC1)N1CCC2(C=Cc3cc(-c4cnc5ccccc5c4)ccc3O2)CC1", "1 to 99 nM"),
    ("CONC(=O)N1CCC2(CCc3cc(-c4ccc5cccnc5c4OC)ccc3O2)CC1", "1 to 99 nM"),
    ("NC(=O)N1CCC2(CCc3cc(-c4cnc5ccccc5c4)ccc3O2)CC1", "100 to 999 nM"),
    ("CCOC(=O)N1CCC2(CCc3cc(-c4ccc5cccnc5c4Cl)ccc3O2)CC1", "1000 to 10000 nM"),
    ("Cc1c(-c2ccc3c(c2)CC2(CCN(C(N)=O)CC2)O3)ccc2cccnc12", "1 to 99 nM"),
    ("CCNC(=O)N1CCC2(CCc3cc(-c4ccc5ccnn5c4C)ccc3O2)CC1", "1 to 99 nM"),
    ("COc1c(-c2ccc3c(c2)CCC2(CCN(C(N)=O)CC2)O3)ccc2cccnc12", "1 to 99 nM"),
    ("CCNC(=O)N1CCC2(CCc3cc(-c4ccc5cnc(C)cc5c4)ccc3O2)CC1", "100 to 999 nM"),
    ("CONC(=O)N1CCC2(CCc3cc(-c4cnc5ccccc5c4C)ccc3O2)CC1", "1 to 99 nM"),
    ("CCC(=O)N1CCC2(CCc3cc(-c4ccc5cccnc5c4C)ccc3O2)CC1", "1 to 99 nM"),
    ("CONC(=O)N1CCC2(CCc3cc(-c4ccc5cnc(C)cc5c4)ccc3O2)CC1", "1 to 99 nM"),
    ("Cc1nccc2cc(-c3ccc4c(c3F)CCC3(CCN(C(N)=O)CC3)O4)ccc12", "1000 to 10000 nM"),
    ("Cc1c(-c2ccc3c(c2)CCC2(CCN(C(=O)NO)CC2)O3)ccc2cccnc12", "100 to 999 nM"),
    ("Cc1c(-c2ccc3c(c2)CCC2(CCN(C(N)=O)CC2)O3)ccc2cccnc12", "1 to 99 nM"),
    ("Cc1nccc2cc(-c3ccc4c(c3)CCC3(CCN(C(N)=O)CC3)O4)ccc12", "100 to 999 nM"),
    ("CCC(=O)N1CCC2(CCc3cc(-c4ccncc4)ccc3O2)CC1 [Example 226, HCl]", "1000 to 10000 nM"),
    ("NC(=O)N1CCC2(CCc3cc(-c4ccc5ncsc5c4)ccc3O2)CC1", "1000 to 10000 nM"),
    ("CCNC(=O)N1CCC2(CC1)Cc1cc(-c3ccc4cccnc4c3OC)ccc1O2", "1000 to 10000 nM"),
    ("CCNC(=O)N1CCC2(CCc3cc(-c4ccc5nccn5c4C)ccc3O2)CC1", "1 to 99 nM"),
]
